Tested on: Skin-2 model ZK1301
Experiment: Skin-2 model: mRNA expression by RT-PCR, semi-quantitative;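 further: Three-dimensional human skin equivalent of dermal fibroblasts and foreskin keratinocytes at an air-liquid interface, exposed for 10 or 48 h, mRNA measured in total RNA by RT-PCR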
Details: Skin-2 model, 1 µM; semi quantitative mRNA change vs control
READOUT_LABEL: k19

Known results for compounds:
C[C@H]1C[C@H]2[C@@H]3CCC4=CC(=O)C=C[C@]4(C)[C@@]3(F)[C@@H](O)C[C@]2(C)[C@@]1(O)C(=O)CO
-0.5
CC1=C(/C=C/C(C)=C/C=C/C(C)=C/C(=O)O)C(C)(C)CCC1 [RA, All-trans-retinoic acid]
-1
C=C1C(=CC=C2CCCC3(C)C2CCC3C(C)CCCC(C)(C)O)CC(O)CC1O (stereo not shown)
0

// below: k19 requested for another compound
// k19 lookup, compound = `O=C(O)Cc1cc(I)c(Oc2ccc(O)c(I)c2)c(I)c1` , result: -1
